Entries with reported Ki on Alpha-2C adrenergic receptor (Homo sapiens, UniProt P18825)
Sequence (P18825 whole entry): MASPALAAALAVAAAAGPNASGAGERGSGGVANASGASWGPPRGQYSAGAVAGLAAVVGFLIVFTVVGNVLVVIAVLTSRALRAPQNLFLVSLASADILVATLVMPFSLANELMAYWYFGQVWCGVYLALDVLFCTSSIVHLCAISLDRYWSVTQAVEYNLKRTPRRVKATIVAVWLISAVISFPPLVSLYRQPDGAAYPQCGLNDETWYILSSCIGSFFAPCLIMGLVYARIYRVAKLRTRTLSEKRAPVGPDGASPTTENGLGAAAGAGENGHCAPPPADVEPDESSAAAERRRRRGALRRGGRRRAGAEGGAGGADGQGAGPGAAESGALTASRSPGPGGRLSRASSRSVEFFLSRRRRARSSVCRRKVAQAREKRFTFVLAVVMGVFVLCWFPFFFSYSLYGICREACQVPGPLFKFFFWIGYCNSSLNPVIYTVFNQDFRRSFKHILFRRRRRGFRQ
Note: unit nM is implicit; provide only the numeric part.

C[C@@H](Oc1c(Cl)cccc1Cl)C1=NCCN1 :: 174
Oc1ccc2c(c1O)CCC[C@@H]2C1=NCCN1 :: 776
CC(N)C(O)c1ccc(O)c(O)c1 (stereo not drawn) [alpha-Methyl-(+/-)norepinephrine,(+/-)] :: 2880
COC1(C2=NCCN2)COc2ccccc2O1 (centres undefined) :: 0.79
Nc1cc(Cl)c(N=C2NCCN2)c(Cl)c1 :: 21.4

*Q* Enter Ki (test system Alpha-2C adrenergic receptor (Homo sapiens, UniProt P18825)) for `CCc1cccc(CC)c1NC1=NCCN1`
*A* 617

*Q* Enter Ki (test system Alpha-2C adrenergic receptor (Homo sapiens, UniProt P18825)) for Fc1cccc(Cl)c1C1CC2=NCCN2C1 (centres undefined)
*A* 282

*Q* Enter Ki (test system Alpha-2C adrenergic receptor (Homo sapiens, UniProt P18825)) for `c1cc2c(c(NC3=NCCN3)c1)CCCC2`
*A* 275

*Q* Enter Ki (test system Alpha-2C adrenergic receptor (Homo sapiens, UniProt P18825)) for `c1ccc2c(CC3=NCCN3)cccc2c1`
*A* 407
